Biological target: T1, human Scribble PDZ3 domain (1005-1094) (human, UniProt Q14160 1005-1094)
T1 sequence (looked up): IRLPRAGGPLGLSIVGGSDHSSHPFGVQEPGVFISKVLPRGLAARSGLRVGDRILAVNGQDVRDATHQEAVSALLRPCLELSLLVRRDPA
Assay: ITC
Measured Attribute: binding result

Example binders with recorded binding result:
For reference, reported binding result for WRRPRTETQV [HPV31 E6 C-terminal PBM 10-mer peptide (WRRPRTETQV)] stands at binds

For reference, reported binding result for TSRQATESTV [HPV66 E6 C-terminal PBM 10-mer peptide (TSRQATESTV)] stands at binds

For reference, reported binding result for RTRQRNETQV [HPV51 E6 C-terminal PBM 10-mer peptide (RTRQRNETQV)] stands at binds

For reference, reported binding result for RLQRRRETQV [HPV18 E6 C-terminal PBM 10-mer peptide (RLQRRRETQV)] stands at binds

For reference, reported binding result for WRSRRRETAL [HPV33 E6 C-terminal PBM 10-mer peptide (WRSRRRETAL)] stands at binds

Then there is this binder:
For reference, reported binding result for RRRIRRETQV [HPV70 E6 C-terminal PBM 10-mer peptide (RRRIRRETQV)] stands at binds
